- Test system: U266
- test-name: Cell proliferation assay, MTT, U266
- Type: cell-based
- reported-conditions: Homo sapiens, U-266, 72 h, standard 3-day proliferation assay
metric-name: IC50

CC(=O)CCN1CCC(N2Cc3cc4nc(-c5c(NCC(=O)COc6ccc(C)cc6C)cc[nH]c5=O)[nH]c4cc3C2=O)CC1
1000 to 5000 nM

For the next question, use this compound.
Consider the compound Cc1ccc(OCC(=O)CNc2cc[nH]c(=O)c2C2Nc3cc4c(cc3N2)C(=O)N(C2CCN(CCS(C)(=O)=O)CC2)C4)c(C)c1 (centres unmarked) and give its recorded IC50.
1000 to 5000 nM

---

- Test system: MM1s
- test-name: Cell proliferation assay, MTT, MM1s
- Assay type: cell-based
- reported-conditions: Homo sapiens, MM1.S, 72 h, standard 3-day proliferation assay
metric-name: IC50

CC(=O)CCN1CCC(N2Cc3cc4nc(-c5c(NCC(=O)COc6ccc(C)cc6C)cc[nH]c5=O)[nH]c4cc3C2=O)CC1
1 to 5 µM

Continue with the next molecule.
Report value: IC50, system: MM1s, molecule: Cc1ccc(OCC(=O)CNc2cc[nH]c(=O)c2C2Nc3cc4c(cc3N2)C(=O)N(C2CCN(CCS(C)(=O)=O)CC2)C4)c(C)c1 (centres unmarked)
0.5 to 1 µM

---

- measurement-target: IGF1 receptor (Homo sapiens)
- Construct: MCF7 human breast cancer cells expressing IGF1 receptor; endogenous in cells
- Sequence (P08069 31-1367): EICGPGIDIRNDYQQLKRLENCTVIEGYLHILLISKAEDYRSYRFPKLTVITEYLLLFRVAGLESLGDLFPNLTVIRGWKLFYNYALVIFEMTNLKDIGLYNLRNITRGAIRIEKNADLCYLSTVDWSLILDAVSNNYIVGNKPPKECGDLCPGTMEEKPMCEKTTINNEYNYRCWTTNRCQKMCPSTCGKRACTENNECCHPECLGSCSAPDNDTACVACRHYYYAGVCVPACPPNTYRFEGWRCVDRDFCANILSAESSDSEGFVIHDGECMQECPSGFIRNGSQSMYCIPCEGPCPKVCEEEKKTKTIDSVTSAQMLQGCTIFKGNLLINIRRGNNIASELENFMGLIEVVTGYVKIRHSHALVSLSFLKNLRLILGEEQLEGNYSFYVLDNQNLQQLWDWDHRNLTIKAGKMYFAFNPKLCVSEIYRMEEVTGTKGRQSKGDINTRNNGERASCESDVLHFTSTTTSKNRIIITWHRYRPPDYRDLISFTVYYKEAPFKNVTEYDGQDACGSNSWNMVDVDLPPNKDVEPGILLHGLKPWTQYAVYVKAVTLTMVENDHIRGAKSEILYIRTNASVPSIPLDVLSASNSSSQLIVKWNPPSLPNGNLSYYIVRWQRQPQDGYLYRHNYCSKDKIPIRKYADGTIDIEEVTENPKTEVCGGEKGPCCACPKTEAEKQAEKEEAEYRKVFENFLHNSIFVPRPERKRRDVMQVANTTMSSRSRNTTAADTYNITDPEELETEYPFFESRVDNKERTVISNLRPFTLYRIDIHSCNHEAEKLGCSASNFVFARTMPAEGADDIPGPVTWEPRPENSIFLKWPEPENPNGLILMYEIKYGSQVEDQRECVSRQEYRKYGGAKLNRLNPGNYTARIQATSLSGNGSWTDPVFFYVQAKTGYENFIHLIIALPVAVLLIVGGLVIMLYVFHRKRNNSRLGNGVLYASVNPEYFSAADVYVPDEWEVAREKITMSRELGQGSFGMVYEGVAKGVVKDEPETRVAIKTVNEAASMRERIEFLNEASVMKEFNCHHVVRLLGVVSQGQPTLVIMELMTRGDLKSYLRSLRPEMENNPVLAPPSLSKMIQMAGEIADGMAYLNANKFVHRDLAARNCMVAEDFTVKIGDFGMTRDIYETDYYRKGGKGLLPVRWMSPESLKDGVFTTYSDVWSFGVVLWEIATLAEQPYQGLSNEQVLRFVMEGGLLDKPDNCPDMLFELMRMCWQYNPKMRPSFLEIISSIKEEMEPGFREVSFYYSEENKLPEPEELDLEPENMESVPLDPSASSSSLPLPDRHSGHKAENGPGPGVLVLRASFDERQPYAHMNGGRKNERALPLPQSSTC
- test-name: ELISA-based assay of IGF1 receptor autophosphorylation inhibition in cells
- reported-conditions: MCF7 cells, read-out: MCF7 IGF1R Phosphorylation IC50
- Description: In another embodiment, compounds that interact with the IGF1R kinase domain are tested in a cell-based assay system. In accordance with this embodiment, cells expressing a full-length IGF1 receptor or a fragment thereof containing the IGF1R kinase domain, are contacted with a candidate or a control compound and the ability of the compound to block tyrosine kinase activity of IGF1R within a cell is determined. […]
pIC50: −log10 of the molar value.
metric-name: pIC50

State pIC50 (IGF1 receptor (Homo sapiens)) of CN1CCC(N2C(=O)c3cc4nc(-c5c(NCC(O)c6ccncc6)cc[nH]c5=O)[nH]c4cc3C2=O)CC1 (stereo not shown) .
< 4.82

---

- Tested on: RPMI-8226
- test-name: Cell proliferation assay, MTT, RPMI-8226
- Assay type: cell-based
- reported-conditions: Homo sapiens, RPMI-8226, 72 h, standard 3-day proliferation assay
pIC50: −log10 of the molar value.
metric-name: pIC50

Cc1ccc(OCC(=O)CNc2cc[nH]c(=O)c2C2Nc3cc4c(cc3N2)C(=O)N(C2CCN(CCS(C)(=O)=O)CC2)C4)c(C)c1 (centres unmarked)
4.70 to 5.30

Then there is this molecule:
Specify measured pIC50 for `CC(=O)CCN1CCC(N2Cc3cc4nc(-c5c(NCC(=O)COc6ccc(C)cc6C)cc[nH]c5=O)[nH]c4cc3C2=O)CC1` .
4.70 to 5.30

---

- System: KMS18
- test-name: Cell proliferation assay, MTT, KMS18
- Type: cell-based
- reported-conditions: Homo sapiens, KMS18, 72 h, standard 3-day proliferation assay
Reported IC50 values are given for each entry in this list.

CC(=O)CCN1CCC(N2Cc3cc4nc(-c5c(NCC(=O)COc6ccc(C)cc6C)cc[nH]c5=O)[nH]c4cc3C2=O)CC1
5 to 20 µM

Answer with IC50 of Cc1ccc(OCC(=O)CNc2cc[nH]c(=O)c2C2Nc3cc4c(cc3N2)C(=O)N(C2CCN(CCS(C)(=O)=O)CC2)C4)c(C)c1 (centres unmarked) measured for KMS18.
5 to 20 µM
